measurementTarget: BTK, recombinant human catalytic domain (aa 393-659) (Homo sapiens (Human), UniProt Q06187)
Sequence (Q06187 393-659): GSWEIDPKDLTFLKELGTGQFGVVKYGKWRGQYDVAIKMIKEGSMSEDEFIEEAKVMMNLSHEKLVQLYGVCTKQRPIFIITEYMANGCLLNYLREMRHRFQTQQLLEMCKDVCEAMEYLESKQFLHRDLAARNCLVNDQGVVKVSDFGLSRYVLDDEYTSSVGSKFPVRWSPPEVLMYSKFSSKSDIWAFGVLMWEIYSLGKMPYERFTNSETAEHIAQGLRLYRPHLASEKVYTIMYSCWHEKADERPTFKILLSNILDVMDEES
protocolDetails: In vitro BTK kinase activity measured by time-resolved fluorescence resonance energy transfer (trFRET)
Format: biochemical
experimentalConditions: read-out: Btk IC50
pIC50: −log10 of the molar value.
// reported pIC50 for each item listed

{"smilesText": "Cc1c(-c2ccc(C(N)=O)c3[nH]c(C4=CCNCC4)cc23)cccc1-n1cnc2ccccc2c1=O", "pIC50": "> 7.00"}
{"smilesText": "Cc1cc2c(N(C)C3CN(C#N)C3)ccc(C(N)=O)c2[nH]1", "pIC50": "6.00 to 7.00"}
{"smilesText": "Cc1c(NC(=O)COc2ccccn2)cccc1-c1ccc(C(N)=O)c2[nH]c(C3=CCN(S(C)(=O)=O)CC3)cc12", "pIC50": "> 7.00"}
{"smilesText": "COCCNC/C=C/C(=O)Nc1cccc(-c2ccc(C(N)=O)c3[nH]ccc23)c1C", "pIC50": "5.00 to 6.00"}
{"smilesText": "C=CC(=O)N1CC[C@@H](c2ccc(C(N)=O)c3[nH]c(-c4cnn(C)c4)cc23)C1", "pIC50": "6.00 to 7.00"}

# input State the recorded pIC50 for this entry: C=CC(=O)N1CC(N(C)c2ccc(C(N)=O)c3[nH]c(-c4cc5n(n4)CCOC5)cc23)C1
# output > 7.00

# input Param item = Cc1c(NC(=O)COc2ccc(C#N)cc2)cccc1-c1ccc(C(N)=O)c2[nH]c(C3=CCN(S(C)(=O)=O)CC3)cc12 ; retrieve measured pIC50.
# output > 7.00

# input Query: pIC50; subject: Cn1cc(-c2cc3c(N4CCC[C@@H](NC(=O)c5ccc(C(F)(F)F)cc5)C4)ccc(C(N)=O)c3[nH]2)cn1
# output 6.00 to 7.00
